System: Carbonic anhydrase 9 (Homo sapiens, UniProt Q16790) | Read-out: pKi | Origin: multiple publications
Just the number, please; pKi means minus log10 of the concentration in mol/L.

[
  {
    "structure-smiles": "Cc1cc(C)[n+](Cc2ccc(S(N)(=O)=O)cc2)cc1C.[O-][Cl+3]([O-])([O-])[O-]",
    "pKi": 7.42
  },
  {
    "structure-smiles": "Nc1nc(-c2ccc(NC(=O)CCNC(=O)c3ccc(S(N)(=O)=O)cc3)cc2)cn2c(=O)n(-c3ccccc3)nc12",
    "pKi": 8.30
  }
]

Give a short answer stating reported pKi for `COc1ccc(C(=O)c2nnn(-c3ccc(S(N)(=O)=O)cc3)c2C(F)(F)F)cc1` . 6.85

Give a short answer stating reported pKi for `NS(=O)(=O)c1ccc(CCNC(=O)NS(=O)(=O)c2ccc(Cl)cc2)cc1` . 8.01

Give a short answer stating reported pKi for `CCn1cc(S(N)(=O)=O)c2cc(NC(=O)c3cc(-c4ccc(Cl)cc4)nc4ccccc34)ccc21` . 5.25

* * *

System: UniProt Q16790 | Read-out: pKi | Origin: multiple publications
pKi: −log10 of the molar value.

Would you please look over these solved cases?
[
  {
    "compound": "NS(=O)(=O)Oc1ccc(NC2=NC(=O)/C(=C\\c3ccccc3)S2)cc1",
    "result": "7.13 to 7.75"
  },
  {
    "compound": "COC(=O)CCCCCNc1ccn(O)c(=O)n1",
    "result": "< 6.00"
  }
]

Give a short answer stating reported pKi for O=S(=O)(NC1C=C[C@H](O)[C@@H](CO)O1)c1ccc(O)cc1 (some centres undefined) . < 4.30

Give a short answer stating reported pKi for `CC/C(=N/Nc1ccc([N+](=O)[O-])cc1)Sc1cc(Cl)c(C)cc1S(N)(=O)=O` . < 5.00

* * *

System: Carbonic anhydrase 9 (Homo sapiens) | Read-out: Ki | Origin: multiple publications
Put your answer as a value accompanied by its unit after it.

Would you please look over these solved cases?
[
  {
    "structure-smiles": "NS(=O)(=O)c1ccc(-n2ncc(N3CCN(c4ccccn4)CC3)c(Cl)c2=O)cc1",
    "measurement-target": "Carbonic anhydrase 9 (Homo sapiens)",
    "result": "89.5 nM"
  },
  {
    "structure-smiles": "CCCCOc1ccc(S(N)(=O)=O)cc1",
    "measurement-target": "Carbonic anhydrase 9 (Homo sapiens)",
    "result": "10.1 nM"
  },
  {
    "structure-smiles": "CC1(C)OB(c2ccc(NS(N)(=O)=O)cc2)OC1(C)C",
    "measurement-target": "Carbonic anhydrase 9 (Homo sapiens)",
    "result": "81 nM"
  }
]

Please turn your attention to the following entry.
Param request: Ki | system Carbonic anhydrase 9 (Homo sapiens) | item `CCCN(CCC)S(=O)(=O)c1ccc(C(=O)NCCN(CC)CC)cc1` 110 nM

* * *

System: Carbonic anhydrase 9 (Homo sapiens) | Read-out: pKi | Origin: multiple publications
pKi: −log10 of the molar value.

Give a short answer stating reported pKi for `O=C(O)c1cc(-c2ccc(Cl)cc2)n[nH]1` . < 4.30

Give a short answer stating reported pKi for `CC(C)c1cc(-c2ccccc2)cc(-c2ccccc2)[n+]1-c1ccc(S(N)(=O)=O)cc1` . < 6.30

Give a short answer stating reported pKi for `C/C(=N\NC(N)=O)c1nnn(-c2ccc(S(=O)(=O)Nc3nccs3)cc2)c1C` . < 4.00

* * *

System: Carbonic anhydrase 9 (Homo sapiens, UniProt Q16790) | Read-out: pKi | Origin: multiple publications
Just the number, please; pKi means minus log10 of the concentration in mol/L.

[
  {
    "structure-smiles": "N#Cc1ccc(Oc2ccncc2S(N)(=O)=O)cc1",
    "quantitative-result": 8.14
  },
  {
    "structure-smiles": "Cc1nn(-c2ccccc2)c2c1c(=O)oc1ccc(NC(=O)Nc3ccccc3)cc12",
    "quantitative-result": 7.11
  }
]

Please turn your attention to the following entry.
Param request: pKi | system Carbonic anhydrase 9 (Homo sapiens, UniProt Q16790) | item `CCOc1ccc(S(=O)(=O)N2CCCCC2)cc1-c1nnc2c(n1)c(C)nn2C` 7.55

* * *

pKi: −log10 of the molar value.
System: Carbonic anhydrase 9 (Homo sapiens, UniProt Q16790) | Read-out: pKi | Origin: multiple publications

Param request: pKi | system Carbonic anhydrase 9 (Homo sapiens, UniProt Q16790) | item `O=S1(=O)CCc2ccc(OCc3ccccc3)cc2O1` < 5.00

Param request: pKi | system Carbonic anhydrase 9 (Homo sapiens, UniProt Q16790) | item `NS(=O)(=O)c1cc2c(cc1SSc1cc3c(cc1S(N)(=O)=O)S(=O)(=O)NCN3)NCNS2(=O)=O` 6.11

Param request: pKi | system Carbonic anhydrase 9 (Homo sapiens, UniProt Q16790) | item `COc1cc(Br)c(C[C@H]2C[C@H]2C(=O)O)cc1OC` < 4.30

Param request: pKi | system Carbonic anhydrase 9 (Homo sapiens, UniProt Q16790) | item `COc1cc(Br)c(C[C@H]2C[C@H]2C(=O)O)c(Br)c1OC` < 4.30

* * *

pKi: −log10 of the molar value.
System: Carbonic anhydrase 9 (Homo sapiens) | Read-out: pKi | Origin: multiple publications

Would you please look over these solved cases?
[
  {
    "molecule": "COS(N)(=O)=O",
    "pKi": "< 6.00"
  },
  {
    "molecule": "Cc1cn([C@H]2C[C@@H](n3cc(CNC(=O)Nc4cccc(S(N)(=O)=O)c4)nn3)[C@@H](CO)O2)c(=O)[nH]c1=O",
    "pKi": "< 5.00"
  },
  {
    "molecule": "O=C1C[C@H](O)[C@@H](CO)OC1NS(=O)(=O)c1ccc(O)cc1 (stereo not given in full)",
    "pKi": "< 4.30"
  },
  {
    "molecule": "O=C(CN1C(=O)c2ccccc2S1(=O)=O)c1cccc([N+](=O)[O-])c1",
    "pKi": "< 4.30"
  }
]

Please turn your attention to the following entry.
Param request: pKi | system Carbonic anhydrase 9 (Homo sapiens) | item `CCCOS(N)(=O)=O` < 6.00

* * *

System: Carbonic anhydrase 9 (Homo sapiens, UniProt Q16790) | Read-out: Ki | Origin: multiple publications

Would you please look over these solved cases?
[
  {
    "structure-smiles": "O=C(NCCNCCNCCNC(=O)C(F)(F)F)C(F)(F)F",
    "Ki": "> 500 µM"
  },
  {
    "structure-smiles": "NS(=O)(=O)Oc1ccc(NC2=NC(=O)/C(=C\\c3ccc(Cl)cc3)S2)cc1",
    "Ki": "0.0176 to 0.0733 µM"
  },
  {
    "structure-smiles": "O=C(Cc1ccc(Cl)cc1)Oc1ccc2c(c1)OS(=O)(=O)CC2",
    "Ki": "> 10 µM"
  },
  {
    "structure-smiles": "CCOC(=O)c1cc(S(N)(=O)=O)c(SSc2cc(Cl)c(C(=O)OCC)cc2S(N)(=O)=O)cc1Cl",
    "Ki": "> 10 µM"
  }
]

Please turn your attention to the following entry.
Param request: Ki | system Carbonic anhydrase 9 (Homo sapiens, UniProt Q16790) | item `NS(=O)(=O)c1ccc(Nc2ccnc(SCC(=O)c3ccc(Cl)cc3)n2)cc1` > 100 µM
